Experiment: NCI Yeast Anticancer Drug Screen. Data for the sgs1 mgt1 strain (AID 161);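 note: 0% = growth of cultures given vehicle only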
Details: S. cerevisiae sgs1 mgt1 strain, at 5.0 µM (retest, dose inferred, filed as 0.5)
This is part of a sample that, as a whole, favours compounds with a hit. Of some 79,000 tested, about 15% had one in any assay. Activity calls are given as the source filed them. Cut-off read from the data, not from the text of the source: active = growth inhibition above about 70%; inactive = the rest.
// classify into yes (1) (active), no (0) (inactive)

**Q:** How did this test come out for COc1cc(/C=C/C(=O)c2ccc3ccccc3c2)cc(OC)c1OC ?
**A:** no (0)

**Q:** Give the logged outcome of this assay for the following molecule: CC(C)c1ccc2c(c1)CC[C@H]1[C@](C)(CN)CCC[C@]21C
**A:** no (0)

**Q:** Each molecule tested received a call. Report the one for CN1CC(CN2CCCCC2)C(O)C(c2ccccc2)C1 (centres undefined) .
**A:** no (0)

**Q:** Answer briefly: the call reported for COc1cc(/C=C2\CC(C)C/C(=C\c3ccc(O)c(OC)c3)C2=O)ccc1O (centres undefined) in this assay.
**A:** yes (1)

**Q:** So what was the verdict on O=C1CC(c2ccccc2Cl)C(c2ccccc2Cl)C1 (centres undefined) in this test?
**A:** no (0)

**Q:** # fetch the recorded call for O=c1c(O)cc2c(O)oc3c(=O)c(O)c(O)c4c(O)oc1c2c43 here
**A:** no (0)

**Q:** Query: recorded result category for O=C(CCC(O)(c1ccccc1)c1ccccc1)c1ccccc1 in this test
**A:** no (0)

**Q:** Recorded call for C=C(C)C1(C(=O)OCC(Cl)(Cl)Cl)NC(=O)C(NC(=O)COc2ccccc2)=CO1 (centres undefined) ?
**A:** no (0)

**Q:** Test call, this molecule: COC1/C=C\C=C(/C)C(=O)Nc2cc3nc4cc(Br)ccc4oc-3c(c2=O)CC(C)CC(OC)C(O)C(C)/C=C(\C)C1OC(N)=O (centres undefined)
**A:** no (0)

**Q:** What did the test return for CC(C)(C)c1cc(C(c2cc3c(cc2O)OCO3)N2CCOCC2)cc(C(C)(C)C)c1O (centres undefined) ?
**A:** yes (1)

**Q:** Tell me the recorded outcome of this test for O=C(CCN1CCOCC1)c1ccc(Oc2ccc(F)cc2)cc1 .
**A:** yes (1)

**Q:** How did this test come out for O=C1CCCC/C1=C\c1ccc(Cl)c(Cl)c1 ?
**A:** no (0)

**Q:** Recorded test call requested for CCCCCCCCCCCCNc1ccccn1
**A:** no (0)

**Q:** Which outcome was assigned to Clc1c2ccccc2cc2cccnc12 in this test?
**A:** no (0)

**Q:** Per the assay record, what outcome was assigned to O=C(Nc1ccc(Cl)cc1Cl)C1C(=O)OC2(CCCCC2)OC1=O ?
**A:** no (0)

**Q:** Kindly provide the recorded test outcome for the following molecule: Cc1cc(SCC(=O)c2ccc(Cl)cc2)cc(C)[o+]1
**A:** no (0)

**Q:** Per the records of this test, what outcome belongs to Cc1ccccc1NC(=O)CSC(N)=O ?
**A:** no (0)

**Q:** Which outcome was entered for the molecule CCCOC(=O)COc1ccccc1C(=O)OCCC in this test?
**A:** no (0)

**Q:** What did the test return for O=C1NC(=O)C(Cc2ccccc2)(Cc2ccccc2)S1 ?
**A:** no (0)

**Q:** Called result for C/C(=C/CC1CCC2C3=CCC4CC(O)CCC4(C)C3CCC12C)C(C)C(C)C (centres undefined)
**A:** no (0)

**Q:** // return assay outcome for O=[N+]([O-])c1ccc(C(Nc2ccccc2)c2ccc3cccnc3c2O)cc1 (centres undefined)
**A:** no (0)

**Q:** How was CCCCCOC(=S)SSSC(=S)OCCCCC classified in this test?
**A:** no (0)

**Q:** Per the records of this test, what outcome belongs to CCCCNc1cccc2ncccc12 ?
**A:** no (0)

**Q:** # fetch the recorded call for COc1ccc2c(c1)C(O)=C(CC=C(C)C)C(=O)C2=O here
**A:** no (0)
